Attribution: patent US7169763B2

# System: CYP3A
# experimental-details: Determination of CYP3A activity by erythromycin demethylation method (rat liver homogenate/microsomes)
# Parameters: dose or concentration left out as unconfirmed
# setup-conditions: inhibitor concentration 0.4; Table 1 Inhibition
As shown below, each of these compounds has a reported CYP3A Activity (percentage of control) value.

Reference set, count: 5
compound	target-system	CYP3A Activity (percentage of control)
O=c1c(O)c(-c2ccc(O)c(O)c2)oc2cc(O)cc(O)c12 [quercetin]	CYP3A	91.62 ± 0.76 percentage of control
C[C@@H]1O[C@@H](Oc2c(-c3ccc(O)c(O)c3)oc3cc(O)cc(O)c3c2=O)[C@H](O)[C@H](O)[C@H]1O [quercitrin]	CYP3A	98.67 ± 7.51 percentage of control
O=c1ccc2ccc(O)cc2o1 [umbelliferone]	CYP3A	90.00 ± 4.20 percentage of control
CC(=O)OCCCc1ccccc1 [3-phenylpropyl acetate]	CYP3A	53.89 ± 4.43 percentage of control
COc1ccc([C@@H]2CC(=O)c3c(O)cc(O)cc3O2)cc1O [hesperetin]	CYP3A	48.25 ± 4.62 percentage of control

Suppose we examine the compound COc1ccc([C@@H]2CC(=O)c3c(O)cc(O[C@@H]4O[C@H](CO[C@@H]5O[C@@H](C)[C@H](O)[C@@H](O)[C@H]5O)[C@@H](O)[C@H](O)[C@H]4O)cc3O2)cc1O [hesperidin] ; what CYP3A Activity (percentage of control) value has been reported?
80.75 ± 4.18 percentage of control

Could you tell me which CYP3A Activity (percentage of control) is on file for O=c1c(O)c(-c2ccc(O)cc2)oc2cc(O)cc(O)c12 [kaempferol] ?
80.11 ± 8.11 percentage of control

Give its CYP3A Activity (percentage of control) value. Item: C=C[C@H]1[C@H](O[C@@H]2O[C@H](CO)[C@@H](O)[C@H](O)[C@H]2O)OC=C2C(=O)OCC[C@]21O [swertiamarin]
65.63 ± 1.29 percentage of control

* * *

# experimental-details: in vivo
# setup-conditions: beagle, dog, po, 10 mg/kg
outcome-measure: Tmax (min)
Respond numerically; units are min and should not be typed.

Which Tmax is reported for this compound? CCC(C)(C)C(=O)O[C@H]1C[C@@H](C)C=C2C=C[C@H](C)[C@H](CC[C@@H]3C[C@@H](O)CC(=O)O3)[C@H]21
45

* * *

# System: CYP3A
# experimental-details: Determination of CYP3A activity by erythromycin demethylation method (rat liver homogenate/microsomes)
# Set-up: dose or concentration left out as unconfirmed
# setup-conditions: inhibitor concentration 0.4; Table 1 Inhibition
Listed molecules paired with reported CYP3A Activity (percentage of control)

Some molecules with recorded CYP3A Activity (percentage of control):
molecule	target-system	CYP3A Activity (percentage of control)
CC(Cc1ccc(O)c(O)c1)C(C)Cc1ccc(O)c(O)c1 (centres unmarked) [Nordihydroguaiaretic Acid]	CYP3A	42.53 ± 0.49 percentage of control
O=C1C[C@@H](c2ccc(O)cc2)Oc2cc(O)cc(O)c21	CYP3A	60.54 ± 15.51 percentage of control
CC(C)[C@@H](C)/C=C/[C@@H](C)[C@H]1CC[C@H]2C3=CC=C4C[C@@H](O)CC[C@]4(C)[C@H]3CC[C@]12C	CYP3A	59.57 ± 5.41 percentage of control
O=c1cc(-c2ccc(O)c(O)c2)oc2cc(O)cc(O)c12	CYP3A	106.51 ± 8.16 percentage of control

Could you now consider this next molecule?
For the record Oc1cc(O)c2c(c1)O[C@H](c1ccc(O)c(O)c1)[C@@H](O)C2 (relative stereo) [(+)-catechin] , what value of CYP3A Activity (percentage of control) is listed for CYP3A?
45.42 ± 6.13 percentage of control

* * *

# experimental-details: in vivo
# setup-conditions: beagle, dog, po, 10 mg/kg
outcome-measure: half-life (h)
Please respond with the number in h and leave the unit unwritten.

What does the record list as half-life for CCC(C)(C)C(=O)O[C@H]1C[C@@H](C)C=C2C=C[C@H](C)[C@H](CC[C@@H]3C[C@@H](O)CC(=O)O3)[C@H]21 ?
1.47

* * *

# System: CYP3A
# experimental-details: Determination of CYP3A activity by erythromycin demethylation method (rat liver homogenate/microsomes)
# Design: dose or concentration left out as unconfirmed
# setup-conditions: inhibitor concentration 0.04; Table 1 Inhibition
outcome-measure: CYP3A Activity (percentage of control)

mol	target-system	value-observed
C[C@@H]1O[C@@H](Oc2c(-c3ccc(O)c(O)c3)oc3cc(O)cc(O)c3c2=O)[C@H](O)[C@H](O)[C@H]1O	CYP3A	73.56 ± 5.96 percentage of control
O=c1cc(-c2ccccc2)oc2cc(O)c(O)c(O)c12	CYP3A	81.59 ± 4.76 percentage of control
C=C[C@H]1[C@H](O[C@@H]2O[C@H](CO)[C@@H](O)[C@H](O)[C@H]2O)OC=C2C(=O)OCC[C@]21O	CYP3A	67.88 ± 0.49 percentage of control
COc1ccc([C@@H]2CC(=O)c3c(O)cc(O[C@@H]4O[C@H](CO[C@@H]5O[C@@H](C)[C@H](O)[C@@H](O)[C@H]5O)[C@@H](O)[C@H](O)[C@H]4O)cc3O2)cc1O	CYP3A	103.79 ± 6.37 percentage of control
COc1ccc([C@@H]2CC(=O)c3c(O)cc(O)cc3O2)cc1O	CYP3A	75.89 ± 3.31 percentage of control

Could you tell me which CYP3A Activity (percentage of control) is on file for COc1ccc(-c2coc3cc(O)ccc3c2=O)cc1 ?
92.06 ± 0.77 percentage of control

Bench note: what CYP3A Activity (percentage of control) did O=c1c(O[C@@H]2O[C@H](CO)[C@@H](O)[C@H](O)[C@H]2O)c(-c2ccc(O)c(O)c2)oc2cc(O)cc(O)c12 show?
66.83 ± 5.03 percentage of control

* * *

# Test system: CYP3A
# experimental-details: Determination of CYP3A activity by erythromycin demethylation method (rat liver homogenate/microsomes)
# Set-up: dose or concentration left out as unconfirmed
# setup-conditions: inhibitor concentration 0.004; Table 1 Inhibition
outcome-measure: CYP3A Activity (percentage of control)

compound	CYP3A Activity (percentage of control)
COc1ccc([C@@H]2CC(=O)c3c(O)cc(O[C@@H]4O[C@H](CO[C@@H]5O[C@@H](C)[C@H](O)[C@@H](O)[C@H]5O)[C@@H](O)[C@H](O)[C@H]4O)cc3O2)cc1O	24.05 ± 5.06 percentage of control
Oc1cc(O)c2c(c1)O[C@H](c1ccc(O)c(O)c1)[C@@H](O)C2 (relative stereo) [(+)-catechin]	59.31 ± 2.94 percentage of control
COc1ccc([C@@H]2CC(=O)c3c(O)cc(O)cc3O2)cc1O	84.66 ± 3.04 percentage of control

Which CYP3A Activity (percentage of control) is listed for COc1ccc(-c2coc3cc(O)ccc3c2=O)cc1 ?
78.78 ± 2.76 percentage of control

Quick one: CYP3A Activity (percentage of control) for O=c1c(O)c(-c2ccc(O)c(O)c2)oc2cc(O)cc(O)c12 ?
75.76 ± 7.97 percentage of control

Given the compound CC(=O)OCCCc1ccccc1 [3-phenylpropyl acetate] , what is its reported CYP3A Activity (percentage of control)?
60.33 ± 2.18 percentage of control

Query (compound): O=c1cc(-c2ccccc2)oc2cc(O)c(O)c(O)c12 ; field requested: CYP3A Activity (percentage of control)
84.66 ± 3.04 percentage of control

Find the recorded CYP3A Activity (percentage of control) belonging to O=C1C[C@@H](c2ccc(O)cc2)Oc2cc(O)cc(O)c21 and report it.
81.63 ± 5.21 percentage of control

# query: CYP3A Activity (percentage of control) of entry C[C@@H]1O[C@@H](Oc2c(-c3ccc(O)c(O)c3)oc3cc(O)cc(O)c3c2=O)[C@H](O)[C@H](O)[C@H]1O
55.06 ± 5.34 percentage of control

Quick check: CYP3A Activity (percentage of control) of CC(C)[C@@H](C)/C=C/[C@@H](C)[C@H]1CC[C@H]2C3=CC=C4C[C@@H](O)CC[C@]4(C)[C@H]3CC[C@]12C ?
64.59 ± 3.34 percentage of control

State the recorded CYP3A Activity (percentage of control) for this entry: CC(Cc1ccc(O)c(O)c1)C(C)Cc1ccc(O)c(O)c1 (centres unmarked) [Nordihydroguaiaretic Acid]
71.26 ± 1.95 percentage of control

Which CYP3A Activity (percentage of control) value belongs to O=c1cc(-c2ccc(O)cc2)oc2cc(O)cc(O)c12 ?
52.96 ± 1.15 percentage of control

Could you tell me which CYP3A Activity (percentage of control) is on file for O=c1c(O)c(-c2ccc(O)cc2)oc2cc(O)cc(O)c12 ?
73.03 ± 2.30 percentage of control

// lookup CYP3A Activity (percentage of control) for O=c1c(O[C@@H]2O[C@H](CO)[C@@H](O)[C@H](O)[C@H]2O)c(-c2ccc(O)c(O)c2)oc2cc(O)cc(O)c12
64.62 ± 1.53 percentage of control
